- System: STK16;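 also: KINOMEscan scanMAX binding as percent activity remaining versus control; lower means stronger binding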
- settings: Compound Concentration (nM):1000
I'd be grateful if you could share measured Percent Control for these entries.
Quick reminder: number only, in %, skip the unit.

// C[C@@H](Oc1cc(-n2cnc3ccc(OC4CCN(C)CC4)cc32)sc1C(N)=O)c1ccccc1Cl [GSK579289A] : Percent Control value = 69

Reported Percent Control ( COc1cc(C=NNc2ncnc3c2cnn3-c2ccccc2)ccc1O [GW513184X] ) = 100

The recorded Percent Control for CC1=C(C(=O)Nc2ccc3[nH]ncc3c2)C(c2ccc3ccccc3c2)CC(=O)N1 (stereo not shown) [GSK270822A] is 88

Record C/C(Nc1ccc(S(N)(=O)=O)cc1)=C1/C(=O)Nc2ccccc21 [GW335962X] . Reported Percent Control: 41
